Entry source: patent US20230279025A1

# testedSystem: KRas G12D (Homo sapiens (Human), UniProt P01116, G12D)
# Sequence (P01116 other isoform, or with tags, fused parts or gaps G12D): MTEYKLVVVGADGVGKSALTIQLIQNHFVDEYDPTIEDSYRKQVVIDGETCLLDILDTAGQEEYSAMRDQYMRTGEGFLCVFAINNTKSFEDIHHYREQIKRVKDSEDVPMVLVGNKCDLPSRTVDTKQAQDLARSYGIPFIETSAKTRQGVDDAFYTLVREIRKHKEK
# methodNotes: KRas G12D Binding Assay (TR-FRET displacement of Cy5 labelled tracer)
# conditionNotes: GDP-loaded KRAS G12D (amino acids 1:169), 60 minute incubation at 22° C.
# Experimental: After a 60 minute incubation at 22° C., the reaction was measured using a PerkinElmer EnVision multimode plate reader via TR-FRET dual wavelength detection, and the percent of control (POC) calculated using a ratiometric emission factor. […] The POC values were fit to a 4-parameter logistic curve and the IC50 value was determined as the concentration where the curve crosses 50 POC. ND stands for “not determined.”
Binary call on IC50 with cut-off 90 nM: strictly below means rule met, and equality or higher means rule not met.

Solved entries:
compound: CN(C)c1ccccc1-c1ncc2c(N3C[C@H]4CC[C@@H](C3)N4)nc(OCC34CCCN3CCC4)nc2c1F
category: rule not met

compound: Fc1cccc(-c2ncc3c(N4C[C@H]5CC[C@@H](C4)N5)nc(OCC45CCCN4CCC5)nc3c2F)c1C(F)(F)F
category: rule met

compound: Fc1c(-c2cccc3ccccc23)ncc2c(N3C[C@H]4CC[C@@H](C3)N4)nc(OCC34CCCN3CCC4)nc12
category: rule met

compound: CN1CCc2cccc(Oc3nc(N4C[C@H]5CC[C@@H](C4)N5)c4cnc(-c5cccc6cccc(Cl)c56)c(F)c4n3)c2C1
category: rule not met

compound: C#Cc1c(F)ccc2cccc(-c3ncc4c(N5C[C@H]6CC[C@@H](C5)N6)nc(OC[C@]56CCCN5[C@@H](COC(=O)N(C)C)CC6)nc4c3F)c12
category: rule met

compound: Cc1nccn1CCOc1nc(N2C[C@H]3C[C@@H](O)[C@@H](C2)N3)c2cnc(-c3cccc4cccc(Cl)c34)c(F)c2n1
category: rule not met

Ask | Item `CSc1ccccc1-c1ncc2c(N3C[C@H]4CC[C@@H](C3)N4)nc(OCC34CCCN3CCC4)nc2c1F` : IC50 beneath 90 nM, strictly?
Reply | rule not met

Ask | Item `CCc1cccc2cc(O)cc(-c3ncc4c(N5C[C@H]6CC[C@@H](C5)N6)nc(OC[C@]56CCCN5C[C@@H](F)C6)nc4c3F)c12` : IC50 beneath 90 nM, strictly?
Reply | rule met

Ask | Item `O=C1OCCN1C[C@H]1CC[C@@]2(COc3nc(N4CC5CCC(C4)N5)c4cnc(-c5cccc6cccc(Cl)c56)c(F)c4n3)CCCN12` : IC50 beneath 90 nM, strictly?
Reply | rule met
